Test system: C6VIK-WT cells
Assay Explanation: Ganciclovir killing in culture (Example 3)
Format: cell-based
Condition Notes: Rattus norvegicus, read-out: GCV concentration at which 50% of cells were killed
Source text: Retroviral vectors can be used to transfer genes into the genome of dividing cells. In order to increase the efficiency of gene delivery and killing effect of ganciclovir, we developed a new packaging line (C6VIK-WT) by infecting C6VIK cells with an ecotropic wild-type retrovirus (MoMLV). […] (Clifton, N.J., Humana), pp. 177-219. Because tumor cells can migrate deep into brain parenchyme, they should be able to deliver the vector to tumor cells away from the tumor mass. […]
Metric: IC50 (nM)
Respond numerically; units are nM and should not be typed.

Request: Fill blank: measured IC50 of the compound `Nc1nc(O)c2ncn(COC(CO)CO)c2n1` is ____.
Result: 24

###

Test system: C6BAG cells
Metric: IC50 (nM)
Respond numerically; units are nM and should not be typed.

Request: Fill blank: measured IC50 of the compound `Nc1nc(O)c2ncn(COC(CO)CO)c2n1` is ____.
Result: 3000
